# Experiment description: Intrinsic cytotoxicity against mouse NIH/3T3 cells transfected with human MDR1 assessed as cell growth at 60 uM by MTT assay
# Format: ADME, cell-based, NIH3T3
# Reported conditions: read-out: Activity
Quantity: viability at 60 µM (%)
Give the value, in units of %, as a plain number.

| Molecule | Number |
| --- | --- |
| CC(=O)O[C@H]1CC[C@](C)(O)[C@]23OC(C)(C)[C@H]([C@H](OC(=O)/C=C/c4ccccc4)[C@H](OC(=O)c4ccccc4)[C@]12C)[C@H]3OC(=O)c1cnccn1 | 86.2 |
| COc1ccc(CCN(C)CCCC(C#N)(c2ccc(OC)c(OC)c2)C(C)C)cc1OC (stereo not drawn) | 76.9 |

As a next step, examine the molecule that follows.
Recorded viability at 60 µM for CC(=O)O[C@H]1CC[C@](C)(O)[C@]23OC(C)(C)[C@H]([C@H](OC(=O)/C=C/c4ccccc4)[C@H](OC(=O)c4ccccc4)[C@]12C)[C@H]3OC(=O)CCC(=O)N(C(=O)NC1CCCCC1)C1CCCCC1 , please?
72.8
